molecular target: Glutathione reductase (Plasmodium falciparum 3D7, UniProt O15770)
Sequence (O15770 whole entry): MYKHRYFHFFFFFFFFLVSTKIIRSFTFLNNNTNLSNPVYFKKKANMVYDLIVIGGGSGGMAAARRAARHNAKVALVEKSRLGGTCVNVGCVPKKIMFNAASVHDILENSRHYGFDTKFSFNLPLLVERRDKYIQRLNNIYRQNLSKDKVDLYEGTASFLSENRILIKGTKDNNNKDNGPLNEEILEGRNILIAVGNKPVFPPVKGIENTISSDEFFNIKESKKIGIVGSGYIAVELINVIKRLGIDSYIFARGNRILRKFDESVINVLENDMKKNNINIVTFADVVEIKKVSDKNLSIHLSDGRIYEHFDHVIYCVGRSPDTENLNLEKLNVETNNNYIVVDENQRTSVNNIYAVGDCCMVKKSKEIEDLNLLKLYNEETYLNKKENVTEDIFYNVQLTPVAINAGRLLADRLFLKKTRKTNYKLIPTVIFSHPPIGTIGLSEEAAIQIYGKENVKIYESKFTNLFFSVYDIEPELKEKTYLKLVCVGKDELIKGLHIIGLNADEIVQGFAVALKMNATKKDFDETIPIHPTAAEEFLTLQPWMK
Quantity name: IC50 (nM)
One number for each entry, in nM.

Reference set (3 entries):
>>> value_reported("CC1=C(CCCCCC(=O)O)C(=O)c2ccccc2C1=O")
500
>>> value_reported("CC1=C(CCCCC(=O)O)C(=O)c2c(O)cccc2C1=O")
2500
>>> value_reported("CC1=C(CCCCC(=O)O)C(=O)c2ccccc2C1=O")
4000

input: Dear colleague, please send me the reported IC50 for `CC1=C(CCCCCC(=O)O)C(=O)c2c(O)cccc2C1=O` when you can.
output: 1300

---

Please respond with reported half-life for every item in the list.
assay: Susceptibility of compound to hydrolysis at 37 degrees C at pH 5.0 acetate medium; type: ADME
Answers are plain numbers, in h.

>>> value_reported("COC(=O)CCCCCC1=C(C)C(=O)c2ccccc2C1=O")
0.5
>>> value_reported("CC1=C(CCCCCC(=O)OCOC(=O)C(C)(C)C)C(=O)c2ccccc2C1=O")
1

Now consider the entry below.
input: Supply half-life value. Item: `CCCC(=O)OCOC(=O)CCCCCC1=C(C)C(=O)c2ccccc2C1=O`
output: 0.5

---

Could you please report measured half-life for the items listed next?
experiment: Susceptibility of compound to hydrolysis at 37 degrees C at pH 7.4 phosphate buffer; type: ADME
Numbers only, in h.

Return reported half-life values for all items listed beneath this line.
1. COC(=O)CCCCCC1=C(C)C(=O)c2ccccc2C1=O
2. CC1=C(CCCCCC(=O)OCOC(=O)C(C)(C)C)C(=O)c2ccccc2C1=O
3. CCCC(=O)OCOC(=O)CCCCCC1=C(C)C(=O)c2ccccc2C1=O

output:
1: 1; 2: 2; 3: 1

---

molecular target: Glutathione reductase (Plasmodium falciparum 3D7) (UniProt O15770); assay: Competitive inhibition of Plasmodium falciparum Glutathione Reductase; conditions: Plasmodium falciparum FcB1
Sequence (O15770 whole entry): as above
For each of the compounds below, state its Ki.c.
Answers are plain numbers, in µM.

Worked cases, answers included:
>>> value_reported("CC1=C(CCCCC(=O)O)C(=O)c2ccccc2C1=O")
3.1
>>> value_reported("CC1=C(CCCCCC(=O)O)C(=O)c2ccccc2C1=O")
0.5
>>> value_reported("CC1=C(CCCCCC(=O)O)C(=O)c2c(O)cccc2C1=O")
2.3

Now let's try a different one.
input: Identify measured Ki.c corresponding to `CC1=C(CCCCC(=O)O)C(=O)c2c(O)cccc2C1=O`
output: 2.4

---

Recorded below: pIC50, system Glutathione reductase, mitochondrial (Homo sapiens).
Give bare numbers, as −log10 of the molar value.

>>> value_reported("CC1=C(CCCCCC(=O)O)C(=O)c2c(O)cccc2C1=O")
6.12
>>> value_reported("CC1=C(CCCCC(=O)O)C(=O)c2ccccc2C1=O")
5.57
>>> value_reported("CC1=C(CCCCC(=O)O)C(=O)c2c(O)cccc2C1=O")
6.00

Could you now look at the following molecule, please?
input: Please supply the value of reported pIC50 for the item `CC1=C(CCCCCC(=O)O)C(=O)c2ccccc2C1=O`
output: 5.59

---

test: Susceptibility of compound to hydrolysis at 37 degrees C at pH 5.0 acetate medium; assay type: ADME
Field: half-life. Provide a value for each of the compounds that follow.

>>> value_reported("CCN(CCCC(C)Nc1ccnc2cc(Cl)ccc12)CCOC(=O)CCCCCC1=C(C)C(=O)c2ccccc2C1=O (stereo not drawn)")
"> 3.33 days"
>>> value_reported("CC1=C(CCCCC(=O)OCc2cc(NC(=O)CN3CCCCC3)cc(Nc3ccnc4cc(Cl)ccc34)c2)C(=O)c2c(O)cccc2C1=O")
"> 3.33 days"

Attention now turns to another entry.
input: Tell us which half-life value is on record for `CC1=C(CCCCCC(=O)OCc2cc(NC(=O)CN3CCCCC3)cc(Nc3ccnc4cc(Cl)ccc34)c2)C(=O)c2ccccc2C1=O`
output: > 3.33 days

---

assay: Susceptibility of compound to hydrolysis at 37 degrees C at pH 7.4 phosphate buffer; type: ADME
Quantity name: half-life

>>> value_reported("CCN(CCCC(C)Nc1ccnc2cc(Cl)ccc12)CCOC(=O)CCCCCC1=C(C)C(=O)c2ccccc2C1=O (stereo not drawn)")
"> 80 h"

Each molecule below has a recorded value; state its half-life.
1. CC1=C(CCCCCC(=O)OCc2cc(NC(=O)CN3CCCCC3)cc(Nc3ccnc4cc(Cl)ccc34)c2)C(=O)c2ccccc2C1=O
2. CC1=C(CCCCC(=O)OCc2cc(NC(=O)CN3CCCCC3)cc(Nc3ccnc4cc(Cl)ccc34)c2)C(=O)c2c(O)cccc2C1=O

output:
> 80 h
> 80 h
